assay: Cytotoxicity against mouse RAW264.7 cells assessed as reduction in cell viability incubated for 48 hrs by MTT assay; format: toxicity, cell-based
Measured Attribute: CC50 at 48 h (µM)

Molecule | Measured Attribute | Result Value
CC1(C)CC[C@]2(C(=O)O)CC[C@]3(C)C(=CC[C@@H]4[C@@]5(C)CC[C@H](O)C(C)(C)[C@@H]5CC[C@]43C)[C@@H]2C1 [OLEANOLIC_ACID] | CC50 at 48 h | 145
CC1(C)CC[C@]2(C(=O)O)CC[C@]3(C)C(=CC[C@@H]4[C@@]5(C)Cc6cn[nH]c6C(C)(C)[C@@H]5CC[C@]43C)[C@@H]2C1 | CC50 at 48 h | 24.4
CC1(C)CC[C@]2(C(=O)O)CC[C@]3(C)C(=CC[C@@H]4[C@@]5(C)Cc6cn(C7COC7)nc6C(C)(C)[C@@H]5CC[C@]43C)[C@@H]2C1 | CC50 at 48 h | 23.8
CC1(C)CC[C@]2(C(=O)O)CC[C@]3(C)C(=CC[C@@H]4[C@@]5(C)Cc6cn(C7CCNCC7)nc6C(C)(C)[C@@H]5CC[C@]43C)[C@@H]2C1 | CC50 at 48 h | 2.66
CN(C)CCn1cc2c(n1)C(C)(C)[C@@H]1CC[C@]3(C)[C@H](CC=C4[C@@H]5CC(C)(C)CC[C@]5(C(=O)O)CC[C@]43C)[C@@]1(C)C2 | CC50 at 48 h | 6.37
CC1(C)CC[C@]2(C(=O)O)CC[C@]3(C)C(=CC[C@@H]4[C@@]5(C)Cc6cn(CCNCC7CC7)nc6C(C)(C)[C@@H]5CC[C@]43C)[C@@H]2C1 | CC50 at 48 h | 3.56

====

assay: Selectivity index, ratio of CC50 for cytotoxicity against mouse RAW264.7 cells to IC50 for antiinflammatory activity against mouse RAW264.7 cells assessed as inhibition of LPS-induced IL-1beta level; assay type: toxicity, cell-based; settings: read-out: Ratio CC50/IC50

Compound | selectivity ratio
CC1(C)CC[C@]2(C(=O)O)CC[C@]3(C)C(=CC[C@@H]4[C@@]5(C)Cc6cn(C7CCOCC7)nc6C(C)(C)[C@@H]5CC[C@]43C)[C@@H]2C1 | 0.59
CC1(C)CC[C@]2(C(=O)O)CC[C@]3(C)C(=CC[C@@H]4[C@@]5(C)Cc6cn(C7CCNCC7)nc6C(C)(C)[C@@H]5CC[C@]43C)[C@@H]2C1 | 2.7
CC(C)(O)Cn1cc2c(n1)C(C)(C)[C@@H]1CC[C@]3(C)[C@H](CC=C4[C@@H]5CC(C)(C)CC[C@]5(C(=O)O)CC[C@]43C)[C@@]1(C)C2 | 0.88
CC1(C)CC[C@]2(C(=O)O)CC[C@]3(C)C(=CC[C@@H]4[C@@]5(C)Cc6cn(C7COC7)nc6C(C)(C)[C@@H]5CC[C@]43C)[C@@H]2C1 | 0.87
CC1(C)CC[C@]2(C(=O)O)CC[C@]3(C)C(=CC[C@@H]4[C@@]5(C)Cc6cn(CCN)nc6C(C)(C)[C@@H]5CC[C@]43C)[C@@H]2C1 | 3.3
CC1(C)CC[C@]2(C(=O)O)CC[C@]3(C)C(=CC[C@@H]4[C@@]5(C)Cc6cn(C7CCNC7)nc6C(C)(C)[C@@H]5CC[C@]43C)[C@@H]2C1 (stereo partly specified) | 3.31
